procedureText: Oral pharmacokinetic study
Assay type: in vivo, Sprague Dawley rats
settings: Sprague Dawley, rat, plasma, po, 50 mg/kg
measurementLabel: half-life (h)
Express your answer in h, writing the number without its unit.

Task: Entry COc1cc2ncnc(Nc3ccc(F)c(Cl)c3)c2cc1OCCCN1CCOCC1 [Gef free drug, Gefitinib] needs its half-life filled in; supply it.
Result: 7.46

----------
procedureText: Oral pharmacokinetic study
Type: in vivo, Sprague Dawley rats
settings: Sprague Dawley, rat, plasma, po, 50 mg/kg
measurementLabel: Cmax (ng/mL)
Express your answer in ng/mL, writing the number without its unit.

Task: Entry COc1cc2ncnc(Nc3ccc(F)c(Cl)c3)c2cc1OCCCN1CCOCC1 [Gef free drug, Gefitinib] needs its Cmax filled in; supply it.
Result: 248
